Assay: in vivo
Conditions: male, Sprague-Dawley, rat
PARAMETER: NOAEL (mg/kg/day)
Entry rule: numbers only, all in mg/kg/day.

# NOAEL of FC1CCN(CCOc2ccc(C3CCC4(CC3)OOC3(OO4)C4CC5CC(C4)CC3C5)cc2)CC1 (stereo not shown) = 100

---

Assay: Rat PK iv 1 mg/kg (Chem Partners)
Conditions: in vivo
Exercise: state measured half-life for each of the molecules provided.
Entry rule: numbers only, all in h.

# half-life of FC1(F)CCN(CCOc2ccc(C3CCC4(CC3)OOC3(OO4)C4CC5CC(C4)CC3C5)cc2)CC1 (centres unmarked) = 2.8

# half-life of CS(=O)(=O)N1CCN(CCCOc2ccc(C3CCC4(CC3)OOC3(OO4)C4CC5CC(C4)CC3C5)cc2)CC1 (centres unmarked) = 3.2

# half-life of c1cc(C2CCC3(CC2)OOC2(OO3)C3CC4CC(C3)CC2C4)ccc1OCCN1CCOCC1 (centres unmarked) = 1.1

# half-life of c1cc(C2CCC3(CC2)OOC2(OO3)C3CC4CC(C3)CC2C4)ccc1OCCCN1CCOCC1 (centres unmarked) = 1.5

# half-life of CS(=O)(=O)N1CCN(CCOc2ccc(C3CCC4(CC3)OOC3(OO4)C4CC5CC(C4)CC3C5)cc2)CC1 (centres unmarked) = 3.2
